# Interaction parameter l (dispersion forces) per record follows
TEST_NAME: Solvation interaction parameters by inverse gas-liquid chromatography (Abraham model)
Type: physicochemical
TEST_PARAMETERS: 40° C.
Reply: number alone, nothing else.

# COMPOUND, VALUE_MEASURED
records = [
    ("C[n+]1ccn(CCCCn2cc[n+](C)c2)c1.O=S(=O)([N-]S(=O)(=O)C(F)(F)F)C(F)(F)F.O=S(=O)([N-]S(=O)(=O)C(F)(F)F)C(F)(F)F [C4(mim)2-NTf2]", 0.56),
    ("Cn1cc[n+](CCCCCCCCC[n+]2ccn(C)c2)c1.O=S(=O)([N-]S(=O)(=O)C(F)(F)F)C(F)(F)F.O=S(=O)([N-]S(=O)(=O)C(F)(F)F)C(F)(F)F [C9(mim)2-NTf2]", 0.62),
    ("O=S(=O)([N-]S(=O)(=O)C(F)(F)F)C(F)(F)F.O=S(=O)([N-]S(=O)(=O)C(F)(F)F)C(F)(F)F.c1ccc(Cn2cc[n+](CCCCCCCCCCCC[n+]3ccn(Cc4ccccc4)c3)c2)cc1 [C12(benzim)2-NTf2]", 0.66),
    ("CCCCn1cc[n+](C)c1.O=S(=O)([N-]S(=O)(=O)C(F)(F)F)C(F)(F)F [BMIM-NTf2, reference compound]", 0.63),
]

Note: attention shifts to another entry.
The reported value for C[N+]1(CCCCCCCCC[N+]2(C)CCCC2)CCCC1.O=S(=O)([N-]S(=O)(=O)C(F)(F)F)C(F)(F)F.O=S(=O)([N-]S(=O)(=O)C(F)(F)F)C(F)(F)F [C9(mpy)2-NTf2] in terms of Interaction parameter l (dispersion forces) is 0.62

* * *

TEST_NAME: Solvation interaction parameters by inverse gas-liquid chromatography (Abraham model)
Format: physicochemical
TEST_PARAMETERS: 40° C.
PARAMETER_MEASURED: Interaction parameter s (dipolarity/polarizability)
I only need the number, thanks.

# MOLECULE, VALUE_MEASURED
measured = [
    ("O=S(=O)([N-]S(=O)(=O)C(F)(F)F)C(F)(F)F.O=S(=O)([N-]S(=O)(=O)C(F)(F)F)C(F)(F)F.c1ccc(Cn2cc[n+](CCCCCCCCCCCC[n+]3ccn(Cc4ccccc4)c3)c2)cc1", 1.65),
    ("Cn1cc[n+](CCCCCCCCC[n+]2ccn(C)c2)c1.O=S(=O)([N-]S(=O)(=O)C(F)(F)F)C(F)(F)F.O=S(=O)([N-]S(=O)(=O)C(F)(F)F)C(F)(F)F", 1.81),
    ("C[N+]1(CCCCCCCCC[N+]2(C)CCCC2)CCCC1.O=S(=O)([N-]S(=O)(=O)C(F)(F)F)C(F)(F)F.O=S(=O)([N-]S(=O)(=O)C(F)(F)F)C(F)(F)F", 1.71),
    ("CCCCn1cc[n+](C)c1.O=S(=O)([N-]S(=O)(=O)C(F)(F)F)C(F)(F)F [BMIM-NTf2, reference compound]", 1.89),
]

--- query ---
The measured Interaction parameter s (dipolarity/polarizability) associated with C[n+]1ccn(CCCCn2cc[n+](C)c2)c1.O=S(=O)([N-]S(=O)(=O)C(F)(F)F)C(F)(F)F.O=S(=O)([N-]S(=O)(=O)C(F)(F)F)C(F)(F)F reads 2.01

* * *

TEST_NAME: Solvation interaction parameters by inverse gas-liquid chromatography (Abraham model)
Format: physicochemical
TEST_PARAMETERS: 100° C.
Let's look at some compounds and their measured Interaction parameter b (hydrogen bond acidity).
Please reply with the value in numeric form only.

# COMPOUND, VALUE_MEASURED
records = [
    ("C[N+]1(CCCCCCCCC[N+]2(C)CCCC2)CCCC1.O=S(=O)([N-]S(=O)(=O)C(F)(F)F)C(F)(F)F.O=S(=O)([N-]S(=O)(=O)C(F)(F)F)C(F)(F)F [C9(mpy)2-NTf2]", 0.15),
    ("CCCCn1cc[n+](C)c1.O=S(=O)([N-]S(=O)(=O)C(F)(F)F)C(F)(F)F [BMIM-NTf2, reference compound]", 0.24),
    ("C[n+]1ccn(CCCCn2cc[n+](C)c2)c1.O=S(=O)([N-]S(=O)(=O)C(F)(F)F)C(F)(F)F.O=S(=O)([N-]S(=O)(=O)C(F)(F)F)C(F)(F)F [C4(mim)2-NTf2]", 0.33),
    ("Cn1cc[n+](CCCCCCCCC[n+]2ccn(C)c2)c1.O=S(=O)([N-]S(=O)(=O)C(F)(F)F)C(F)(F)F.O=S(=O)([N-]S(=O)(=O)C(F)(F)F)C(F)(F)F [C9(mim)2-NTf2]", 0.15),
]

Here's the next entry for you.
Lab note: O=S(=O)([N-]S(=O)(=O)C(F)(F)F)C(F)(F)F.O=S(=O)([N-]S(=O)(=O)C(F)(F)F)C(F)(F)F.c1ccc(Cn2cc[n+](CCCCCCCCCCCC[n+]3ccn(Cc4ccccc4)c3)c2)cc1 [C12(benzim)2-NTf2] gave Interaction parameter b (hydrogen bond acidity) of 0.52

* * *

TEST_NAME: Solvation interaction parameters by inverse gas-liquid chromatography (Abraham model)
Type: physicochemical
TEST_PARAMETERS: 70° C.
PARAMETER_MEASURED: Interaction parameter s (dipolarity/polarizability)

Record C[n+]1ccn(CCCCn2cc[n+](C)c2)c1.O=S(=O)([N-]S(=O)(=O)C(F)(F)F)C(F)(F)F.O=S(=O)([N-]S(=O)(=O)C(F)(F)F)C(F)(F)F [C4(mim)2-NTf2] , field Interaction parameter s (dipolarity/polarizability): 1.78

Reported Interaction parameter s (dipolarity/polarizability) for C[N+]1(CCCCCCCCC[N+]2(C)CCCC2)CCCC1.O=S(=O)([N-]S(=O)(=O)C(F)(F)F)C(F)(F)F.O=S(=O)([N-]S(=O)(=O)C(F)(F)F)C(F)(F)F [C9(mpy)2-NTf2] was 1.52

Cn1cc[n+](CCCCCCCCC[n+]2ccn(C)c2)c1.O=S(=O)([N-]S(=O)(=O)C(F)(F)F)C(F)(F)F.O=S(=O)([N-]S(=O)(=O)C(F)(F)F)C(F)(F)F [C9(mim)2-NTf2] has a reported Interaction parameter s (dipolarity/polarizability) of 1.76

Query O=S(=O)([N-]S(=O)(=O)C(F)(F)F)C(F)(F)F.O=S(=O)([N-]S(=O)(=O)C(F)(F)F)C(F)(F)F.c1ccc(Cn2cc[n+](CCCCCCCCCCCC[n+]3ccn(Cc4ccccc4)c3)c2)cc1 [C12(benzim)2-NTf2] yields Interaction parameter s (dipolarity/polarizability) of 1.62

// Interaction parameter s (dipolarity/polarizability) lookup, molecule = CCCCn1cc[n+](C)c1.O=S(=O)([N-]S(=O)(=O)C(F)(F)F)C(F)(F)F [BMIM-NTf2, reference compound] , result: 1.67

* * *

TEST_NAME: Solvation interaction parameters by inverse gas-liquid chromatography (Abraham model)
Type: physicochemical
TEST_PARAMETERS: 100° C.
// Interaction parameter a (hydrogen bond basicity) lookup, one value per entry
Note: the reply should be a number with no unit written.

# COMPOUND, VALUE_MEASURED
data = [
    ("C[n+]1ccn(CCCCn2cc[n+](C)c2)c1.O=S(=O)([N-]S(=O)(=O)C(F)(F)F)C(F)(F)F.O=S(=O)([N-]S(=O)(=O)C(F)(F)F)C(F)(F)F", 1.57),
    ("O=S(=O)([N-]S(=O)(=O)C(F)(F)F)C(F)(F)F.O=S(=O)([N-]S(=O)(=O)C(F)(F)F)C(F)(F)F.c1ccc(Cn2cc[n+](CCCCCCCCCCCC[n+]3ccn(Cc4ccccc4)c3)c2)cc1", 1.44),
    ("CCCCn1cc[n+](C)c1.O=S(=O)([N-]S(=O)(=O)C(F)(F)F)C(F)(F)F [BMIM-NTf2, reference compound]", 1.55),
    ("Cn1cc[n+](CCCCCCCCC[n+]2ccn(C)c2)c1.O=S(=O)([N-]S(=O)(=O)C(F)(F)F)C(F)(F)F.O=S(=O)([N-]S(=O)(=O)C(F)(F)F)C(F)(F)F", 1.50),
]

Reported Interaction parameter a (hydrogen bond basicity) of C[N+]1(CCCCCCCCC[N+]2(C)CCCC2)CCCC1.O=S(=O)([N-]S(=O)(=O)C(F)(F)F)C(F)(F)F.O=S(=O)([N-]S(=O)(=O)C(F)(F)F)C(F)(F)F : 1.48

* * *

Below, each entry is listed alongside its reported Interaction parameter a (hydrogen bond basicity).
TEST_NAME: Solvation interaction parameters by inverse gas-liquid chromatography (Abraham model)
Type: physicochemical
TEST_PARAMETERS: 40° C.
Please give the numeric answer without any surrounding text.

Below are worked cases with known answers.
# MOLECULE, VALUE_MEASURED
measured = [
    ("Cn1cc[n+](CCCCCCCCC[n+]2ccn(C)c2)c1.O=S(=O)([N-]S(=O)(=O)C(F)(F)F)C(F)(F)F.O=S(=O)([N-]S(=O)(=O)C(F)(F)F)C(F)(F)F", 1.83),
    ("C[N+]1(CCCCCCCCC[N+]2(C)CCCC2)CCCC1.O=S(=O)([N-]S(=O)(=O)C(F)(F)F)C(F)(F)F.O=S(=O)([N-]S(=O)(=O)C(F)(F)F)C(F)(F)F", 1.98),
    ("O=S(=O)([N-]S(=O)(=O)C(F)(F)F)C(F)(F)F.O=S(=O)([N-]S(=O)(=O)C(F)(F)F)C(F)(F)F.c1ccc(Cn2cc[n+](CCCCCCCCCCCC[n+]3ccn(Cc4ccccc4)c3)c2)cc1", 1.96),
]

response.value for C[n+]1ccn(CCCCn2cc[n+](C)c2)c1.O=S(=O)([N-]S(=O)(=O)C(F)(F)F)C(F)(F)F.O=S(=O)([N-]S(=O)(=O)C(F)(F)F)C(F)(F)F (field: Interaction parameter a (hydrogen bond basicity)) = 2.11

Sample CCCCn1cc[n+](C)c1.O=S(=O)([N-]S(=O)(=O)C(F)(F)F)C(F)(F)F [BMIM-NTf2, reference compound] ; Interaction parameter a (hydrogen bond basicity) observed: 2.02
